Reference source: paper PMC10397247

Overview of reported interaction score across a group of binders:
TESTED SYSTEM: T1, 4H3297-bH
T1 chain: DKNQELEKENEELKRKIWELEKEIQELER
PROCEDURE SUMMARY: two-hybrid library CCNG1;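 note: natural log of median RNA to DNA barcode read ratio; higher means stronger binding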
Please reply with the value in numeric form only.

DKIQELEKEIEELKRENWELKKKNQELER [4H2143-bH] ... -0.15
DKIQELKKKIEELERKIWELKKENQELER [4H2859-bH] ... 0.299
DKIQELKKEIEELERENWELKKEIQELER [4H2585-bH] ... -0.417

Kindly consider the entry below.
Answer with reported interaction score of DKNQELEKENEELKRKIWELEKEIQELER [4H3297-bH]
0.885
